Method Description: Drug concentration in brain of mouse at 30 mg/kg, measured after 1 hr
Format: ADME, organism-based
Applied Conditions: read-out: Ct
Property Name: concentration at 1 h (ng/g)
Numbers only, in ng/g.

q: Recorded concentration at 1 h for Cc1ccc(C(=O)NNC(=O)c2c(C)cccc2Cl)cc1C#Cc1cnc2ccccc2c1 [VODOBATINIB] , please?
a: 1900

###

System: K562
Method Description: Antiproliferative activity against imatinib resistant human K562 cells expressing STAT5 assessed as cell growth inhibition
Assay type: functional, cell-based
Property Name: IC50 (nM)
One number for each entry, in nM.

q: Recorded IC50 for `CC(C)c1cc(CNc2nc(Nc3cc(C4CC4)[nH]n3)cc(N3CCN(C)CC3)n2)on1` , please?
a: 43

###

Target Desc: BCR/ABL1 (Mus musculus, UniProt P00520, E255V)
Sequence (P00520 whole entry E255V, looked up): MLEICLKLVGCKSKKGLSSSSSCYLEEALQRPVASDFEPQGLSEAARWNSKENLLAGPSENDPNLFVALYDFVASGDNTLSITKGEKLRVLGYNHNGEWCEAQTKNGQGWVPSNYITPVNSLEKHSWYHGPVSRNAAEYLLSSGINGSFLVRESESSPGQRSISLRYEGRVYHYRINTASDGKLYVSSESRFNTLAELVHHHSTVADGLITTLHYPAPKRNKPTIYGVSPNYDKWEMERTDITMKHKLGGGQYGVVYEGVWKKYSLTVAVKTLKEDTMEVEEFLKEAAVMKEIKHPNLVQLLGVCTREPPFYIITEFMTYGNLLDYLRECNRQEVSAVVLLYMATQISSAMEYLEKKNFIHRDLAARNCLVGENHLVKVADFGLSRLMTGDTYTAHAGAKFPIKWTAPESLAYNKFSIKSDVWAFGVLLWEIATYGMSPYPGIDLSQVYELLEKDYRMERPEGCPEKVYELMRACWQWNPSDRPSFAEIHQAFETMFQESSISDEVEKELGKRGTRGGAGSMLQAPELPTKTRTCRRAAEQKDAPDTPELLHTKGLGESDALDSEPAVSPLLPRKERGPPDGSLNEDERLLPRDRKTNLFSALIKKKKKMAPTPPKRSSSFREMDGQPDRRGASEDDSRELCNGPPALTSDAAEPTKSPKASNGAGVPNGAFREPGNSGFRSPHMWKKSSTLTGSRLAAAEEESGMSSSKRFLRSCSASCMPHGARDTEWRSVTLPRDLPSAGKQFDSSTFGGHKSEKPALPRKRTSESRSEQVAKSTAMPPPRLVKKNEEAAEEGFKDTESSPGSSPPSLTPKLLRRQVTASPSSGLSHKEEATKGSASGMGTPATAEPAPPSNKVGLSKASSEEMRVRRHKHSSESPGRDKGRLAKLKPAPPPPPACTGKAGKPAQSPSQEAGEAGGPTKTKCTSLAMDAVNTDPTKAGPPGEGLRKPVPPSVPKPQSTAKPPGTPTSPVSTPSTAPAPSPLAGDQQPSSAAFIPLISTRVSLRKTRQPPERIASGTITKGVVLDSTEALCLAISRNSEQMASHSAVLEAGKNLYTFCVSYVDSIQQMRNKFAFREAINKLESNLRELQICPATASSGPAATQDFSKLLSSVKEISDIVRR
Method Description: Inhibition of BCR-ABL E255V mutant phosphorylation in mouse BaF3 cells incubated for 4 hrs by immunoblotting analysis
Assay type: cell-based
Property Name: pIC50
One number for each entry, as −log10 of the molar value.

q: Recorded pIC50 for `Cc1ccc(C(=O)NNC(=O)c2c(C)cccc2Cl)cc1C#Cc1cnc2ccccc2c1` , please?
a: 6.78

###

Target Desc: Platelet-derived growth factor receptor beta (Homo sapiens, UniProt P09619)
Sequence (P09619 whole entry): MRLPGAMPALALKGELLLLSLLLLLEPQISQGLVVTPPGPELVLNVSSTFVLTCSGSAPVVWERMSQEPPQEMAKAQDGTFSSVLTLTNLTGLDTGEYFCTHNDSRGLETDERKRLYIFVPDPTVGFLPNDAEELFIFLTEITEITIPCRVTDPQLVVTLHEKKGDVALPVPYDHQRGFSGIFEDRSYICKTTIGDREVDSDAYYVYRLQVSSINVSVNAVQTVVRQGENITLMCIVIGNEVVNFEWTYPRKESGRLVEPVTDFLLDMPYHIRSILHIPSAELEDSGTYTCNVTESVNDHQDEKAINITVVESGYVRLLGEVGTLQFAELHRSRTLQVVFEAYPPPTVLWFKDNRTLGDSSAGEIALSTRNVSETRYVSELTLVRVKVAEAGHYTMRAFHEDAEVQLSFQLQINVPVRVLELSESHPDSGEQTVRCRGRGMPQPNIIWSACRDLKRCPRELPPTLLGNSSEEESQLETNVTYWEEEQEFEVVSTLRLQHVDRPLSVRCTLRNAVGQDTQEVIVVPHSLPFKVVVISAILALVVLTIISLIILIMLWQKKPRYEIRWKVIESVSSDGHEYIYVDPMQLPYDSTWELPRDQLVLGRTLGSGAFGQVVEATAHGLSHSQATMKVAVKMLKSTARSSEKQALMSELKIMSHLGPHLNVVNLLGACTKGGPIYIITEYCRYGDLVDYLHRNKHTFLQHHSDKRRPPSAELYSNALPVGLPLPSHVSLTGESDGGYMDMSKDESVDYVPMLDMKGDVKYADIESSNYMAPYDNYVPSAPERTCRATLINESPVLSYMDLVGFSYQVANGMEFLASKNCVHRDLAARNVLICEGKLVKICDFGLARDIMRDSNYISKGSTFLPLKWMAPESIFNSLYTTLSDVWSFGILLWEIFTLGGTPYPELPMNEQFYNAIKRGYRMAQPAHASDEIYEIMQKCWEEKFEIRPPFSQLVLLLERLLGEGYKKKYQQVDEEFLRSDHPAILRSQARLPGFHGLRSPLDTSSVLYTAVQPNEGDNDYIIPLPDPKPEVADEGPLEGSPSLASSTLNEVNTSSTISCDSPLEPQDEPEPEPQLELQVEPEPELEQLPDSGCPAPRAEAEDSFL
Property Name: pIC50
Give bare numbers, as −log10 of the molar value.

q: Tell me reported pIC50 for Cc1ncc(NC(=O)c2ccc(CN3CCN(C)CC3)c(C(F)(F)F)c2)cc1Nc1nccc(-c2cccnc2)n1 [FLUMATINIB] , tested with Platelet-derived growth factor receptor beta (Homo sapiens, UniProt P09619).
a: 6.51

###

Method Description: Cmax in mouse at 10 mg/kg, po measured after upto 24 hrs by LC-MS/MS analysis
Assay type: ADME, organism-based
Set-up: dose 10 mg/kg, time < 24 hrs, route po
Applied Conditions: in vivo
Property Name: Cmax

q: Recorded Cmax for `Cc1ncsc1-c1ccc(CNC(=O)[C@@H]2C[C@@H](O)CN2C(=O)[C@@H](NC(=O)COCCNc2ccc(C(=O)Nc3ccc(OC(F)(F)Cl)cc3)cc2-c2cc[nH]n2)C(C)(C)C)cc1` , please?
a: 536 ng/mL

###

Method Description: Cmax in BALB/c mouse at 30 mg/kg, po via gavage
Format: ADME, organism-based
Set-up: dose 30 mg/kg, route po
Applied Conditions: in vivo
Property Name: Cmax (ng/mL)
Answers are plain numbers, in ng/mL.

q: Recorded Cmax for `Cc1ccc(NC(=O)c2ccc(CN3CC[C@H](N(C)C)C3)c(C(F)(F)F)c2)cc1Nc1nccc(-c2cncnc2)n1` , please?
a: 661

###

Method Description: Tmax in BALB/c mouse at 30 mg/kg, po via gavage
Format: ADME, organism-based
Applied Conditions: in vivo
Property Name: Tmax (h)
Numbers only, in h.

q: Recorded Tmax for `Cc1ccc(NC(=O)c2ccc(CN3CC[C@H](N(C)C)C3)c(C(F)(F)F)c2)cc1Nc1nccc(-c2cncnc2)n1` , please?
a: 2

###

Target Desc: Tyrosine-protein kinase ABL1 (Homo sapiens)
Sequence (P00519 whole entry): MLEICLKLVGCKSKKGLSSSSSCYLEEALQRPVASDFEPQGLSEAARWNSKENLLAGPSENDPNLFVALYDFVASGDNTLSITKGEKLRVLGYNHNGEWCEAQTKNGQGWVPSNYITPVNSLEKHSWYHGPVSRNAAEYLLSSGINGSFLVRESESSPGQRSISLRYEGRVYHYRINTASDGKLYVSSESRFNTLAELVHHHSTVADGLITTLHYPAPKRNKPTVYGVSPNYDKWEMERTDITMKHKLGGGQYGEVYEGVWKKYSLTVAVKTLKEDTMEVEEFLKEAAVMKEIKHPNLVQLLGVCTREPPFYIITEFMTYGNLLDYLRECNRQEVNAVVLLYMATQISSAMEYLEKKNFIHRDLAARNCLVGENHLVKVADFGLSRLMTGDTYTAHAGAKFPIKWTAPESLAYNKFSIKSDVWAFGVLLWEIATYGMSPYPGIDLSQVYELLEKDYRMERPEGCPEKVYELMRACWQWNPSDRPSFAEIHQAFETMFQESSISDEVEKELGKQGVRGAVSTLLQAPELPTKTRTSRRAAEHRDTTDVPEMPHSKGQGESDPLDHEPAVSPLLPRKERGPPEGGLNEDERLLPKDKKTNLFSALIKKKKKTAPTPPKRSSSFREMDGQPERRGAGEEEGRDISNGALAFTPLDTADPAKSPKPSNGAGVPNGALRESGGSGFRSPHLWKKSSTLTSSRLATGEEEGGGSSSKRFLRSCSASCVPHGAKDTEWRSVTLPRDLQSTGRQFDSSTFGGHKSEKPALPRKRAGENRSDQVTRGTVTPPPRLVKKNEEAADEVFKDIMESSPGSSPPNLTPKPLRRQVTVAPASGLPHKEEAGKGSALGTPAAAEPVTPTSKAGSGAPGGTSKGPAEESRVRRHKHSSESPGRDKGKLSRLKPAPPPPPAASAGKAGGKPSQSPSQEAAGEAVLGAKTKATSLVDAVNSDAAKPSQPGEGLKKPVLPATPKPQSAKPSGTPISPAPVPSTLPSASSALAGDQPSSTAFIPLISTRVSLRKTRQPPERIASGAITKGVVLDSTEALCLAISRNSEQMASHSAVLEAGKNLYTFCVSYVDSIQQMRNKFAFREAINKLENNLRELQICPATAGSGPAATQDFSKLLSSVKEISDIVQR
Method Description: Binding affinity to human recombinant His-tagged full length ABL1 expressed in baculovirus expression system by TR-FRET assay
Property Name: IC50 (nM)
Give bare numbers, in nM.

q: Recorded IC50 for `CN[C@@H](C)C(=O)N[C@H](C(=O)N1CCC[C@H]1c1nc(C(=O)c2cccc(OCCCOCC(=O)N3CCN(c4cc(Nc5ncc(C(=O)Nc6c(C)cccc6Cl)s5)nc(C)n4)CC3)c2)cs1)C1CCCCC1` , please?
a: 0.54

Cited source for all entries: ChEMBL document CHEMBL5107965
